assay: Fluorescence properties of the cycloaddition products; assay type: physicochemical; settings: of the cycloaddition products 44a-44f and 100a
Reported property: λem emission wavelength (nm)
Please give a number only; it is taken to be in nm.

Worked set:
compound="C#CCOC(=O)C1=C2C(=C(c3ccccc3)C1=O)c1cccc3cccc2c13 [Compound 10e]" reported_property="λem emission wavelength" numeric_readout=454
compound="CN(CC#C[Si](c1ccccc1)(c1ccccc1)C(C)(C)C)C(=O)C1=C2C(=C(c3ccccc3)C1=O)c1cccc3cccc2c13 [Compound 10d]" reported_property="λem emission wavelength" numeric_readout=456
compound="C#CCN(C)C(=O)C1=C2C(=C(c3ccccc3)C1=O)c1cccc3cccc2c13 [Compound 10a]" reported_property="λem emission wavelength" numeric_readout=450

// moving on: another record for λem emission wavelength
What value of λem emission wavelength has been recorded for this entry: C#CCNC(=O)C1=C2C(=C(c3ccccc3)C1=O)c1cccc3cccc2c13 [Compound 10f]
456
